Experiment: physchem
Settings: octanol/water
Just a reminder that ties go to False: only logD strictly below 2 counts as True.

Strictly below 2 in logD? CN(C)C(=O)c1ccc(C(=C2CCN(Cc3cscn3)CC2)c2cccc3cccnc23)cc1
False

Strictly below 2 in logD? O=C(c1ccc(C(=C2CCN(Cc3cscn3)CC2)c2cccc3cccnc23)cc1)N1CCCC1
False

Strictly below 2 in logD? O=C(c1ccc(C(=C2CCN(Cc3cscn3)CC2)c2cccc3cccnc23)cc1)N1CCOCC1
False

Strictly below 2 in logD? O=C(c1ccc(C(=C2CCN(Cc3cscn3)CC2)c2cccc3cccnc23)cc1)N1CCC(O)CC1
True
